Reference source: PubChem BioAssay (NCI)

TGI values for the molecules below.
# Test system: HL-60(TB) leukemia
# Test: NCI tumour cell line growth inhibition, 48 h

Some entries whose results are on file:
{"Molecule": "Cc1ccc(C(=O)N/N=C(\\N=Nc2ccc(C(=O)O)cc2)c2ccc(N(CCC#N)CCC#N)cc2C)cc1", "TGI": "> 100 µM"}
{"Molecule": "O=C(CC(Cl)=C(Cl)Cl)c1ccccc1", "TGI": "> 100 µM"}
{"Molecule": "O=C(O)c1nc(-c2ccc(Cl)c(Cl)c2)nc2ccc(Cl)cc12", "TGI": "54.2 µM"}
{"Molecule": "Cc1ccc(Nc2nc3c(=O)n(C)c(=O)n(C)c3nc2Nc2ccc(C)cc2)cc1", "TGI": "> 100 µM"}
{"Molecule": "CC(=O)OC(Cc1c(O)c2c(C)cccc2oc1=O)C(C)(C)O (stereo not given)", "TGI": "> 100 µM"}

(Q) Test system HL-60(TB) leukemia; read-out TGI; what value for c1ccc([I+]c2ccccc2)cc1 ?
(A) > 100 µM

(Q) Test system HL-60(TB) leukemia; read-out TGI; what value for Cc1cc(S(=O)(=O)/N=C(\[N-]S(=O)(=O)c2cc(Cl)sc2Cl)[n+]2ccc(N(C)C)cc2)c(S)cc1Cl ?
(A) > 100 µM

(Q) Test system HL-60(TB) leukemia; read-out TGI; what value for CC(=O)Oc1ccc2c3c1O[C@H]1[C@H](O)CC[C@@]4(O)[C@@H](C2)N(C)CC[C@]314 ?
(A) > 100 µM

(Q) Test system HL-60(TB) leukemia; read-out TGI; what value for Cc1ccc(-c2nc3nc(-c4ccccc4)nc(N4CCNCC4)c3o2)cc1 ?
(A) 0.463 µM

(Q) Test system HL-60(TB) leukemia; read-out TGI; what value for Cc1[nH]c(=O)nc(NNCc2ccc(Cl)cc2)c1C(=O)Nc1ccc(Cl)cc1 ?
(A) > 100 µM
